- Test system: KM12 colon
- TEST PROTOCOL: NCI tumour cell line growth inhibition, 48 h
*1 amine or outer side, *2 acyl side, *3 side chain or, on linkers, in order; H or OH if unused. Where a SMILES comes first, the peptide text is derived from it. [ ]: non-standard residue; d: D form. X56 = CC[C@H](C)[C@H](OC(=O)[C@@H](C)[C@@H](CC)N[*:1])C(=O)[*:2]; X32 = C[C@H](N[*:1])C(=O)C(C)(C)C(=O)[*:2]; NMeY = CN[C@@H](Cc1ccc(O)cc1)C(=O)O; NMeL = CN[C@@H](CC(C)C)C(=O)O; NMeV = CN[C@H](C(=O)O)C(C)C
METRIC: TGI

>>> reported("OCC(O)C(O)C(O)/C=N/Nc1nc2ccccc2nc1-c1ccccc1 (centres undefined)")
"> 100 µM"
>>> reported("CC[C@H](C)[C@@H]1OC(=O)[C@@H](C)[C@@H](CC)NC(=O)[C@H](C)NC(=O)C(C)(C)C(=O)[C@H](C)NC(=O)[C@H](Cc2ccc(OC)cc2)N(C)C(=O)[C@H](C(C)C)N(C)C(=O)CNC(=O)[C@H](CC(C)C)N(C)C(=O)CNC1=O (cyclo(A[X56]G[NMeL]G[NMeV][NMeY](Me)[X32]))")
"91.2 µM"
>>> reported("COc1ccc(/C=N/NC(=O)c2cnc3[nH]c(=O)n(C)c(=O)c3c2)cc1")
"> 100 µM"
>>> reported("CCN(CC)C(=O)N1CN(c2ccccc2)C2(CCN(CCCSc3ccc(F)cc3)CC2)C1=O")
"25.3 µM"
>>> reported("COc1cc2c(cn1)[nH]c1ccccc12")
"> 100 µM"
>>> reported("NC1CCC(N[C@@H]2C[C@H]2c2ccccc2)CC1 (some centres undefined)")
"> 100 µM"
>>> reported("Clc1nc(Cl)c(CBr)c(Cl)n1")
"7.87 µM"
>>> reported("NNC(=O)/C(NC(=O)c1ccccc1)=C(\\N)c1ccc(Cl)cc1")
"> 100 µM"
>>> reported("COC(=O)c1ccccc1C1CN=NC12Cc1cccc(C)c1C2=O (centres undefined)")
"> 100 µM"
>>> reported("CC(C)c1ccc(NC(=S)NC(=O)c2ccccc2)cc1")
"46.5 µM"
>>> reported("Nc1ccc(Oc2ccc(C34CC5CC6C3CC3CC4C(C5)C6(c4ccc(Oc5ccc(N)c(O)c5)cc4)C3)cc2)cc1O")
"47.8 µM"
>>> reported("O=[N+]([O-])c1ccc(Cl)cc1N/N=C/c1cccc2cccnc12")
"> 100 µM"
>>> reported("COc1ccc(/C=C/NC=O)cc1")
"> 100 µM"
>>> reported("Cc1ccc(S(=O)(=O)N2CCNCCN(S(=O)(=O)c3ccc(C)cc3)CCN(S(=O)(=O)c3ccc(C)cc3)CC2)cc1")
"> 100 µM"

Data provenance: PubChem BioAssay (NCI)
